Data origin: patent US20230382920A1

test_description: Pharmacokinetics study of KDG-0388 in male CD1 mice (Example 2)
Assay type: in vivo
condition_parameters: mouse; male CD1 mice, plasma, 200 mg/kg PO, 8 h; read-out: Concentration PO_Mean
measured_parameter: concentration at 8 h (ng/mL)
Give bare numbers, in ng/mL.

Name the recorded concentration at 8 h for Cc1n[nH]c2c1C(c1cc(C#C[C@H]3C[C@@H](NC(=O)OC(C)(C)C)C3)cc(CO)c1)(C(C)C)C(C#N)=C(N)O2 (stereo partly shown) . 84.3

---

test_description: Pharmacokinetics study of KDG-0271 in male CD1 mice (Example 3)
Format: in vivo
condition_parameters: mouse; male CD1 mice, plasma, 200 mg/kg PO, 0.5 h; read-out: Concentration PO_Mean
measured_parameter: concentration at 0.5 h (ng/mL)
Give bare numbers, in ng/mL.

Please look up its concentration at 0.5 h: Cc1n[nH]c2c1C(c1cc(C#CC3CN(C(=O)OC(C)(C)C)C3)cc(CO)c1)(C(C)C)C(C#N)=C(N)O2 (stereo not shown) 958

---

test_description: Pharmacokinetics study of KDG-0320-0A in male CD1 mice (Example 1)
Format: in vivo
condition_parameters: mouse, plasma, 1 mg/kg IV
Counter-ions that a name gives are not always drawn.
measured_parameter: half-life (h)
Give bare numbers, in h.

Requested read-out: half-life. Entry: Cc1n[nH]c2c1C(c1cc(C#C[C@H]3CC[C@H](NC(=O)OC(C)(C)C)CC3)cc(CO)c1)(C(C)C)C(C#N)=C(N)O2 (stereo partly shown) [KDG-0320, hydrochloride] 1.04

---

test_description: Pharmacokinetics study of KDG-0388 in male CD1 mice (Example 2)
Format: in vivo
condition_parameters: male, mouse, plasma; CD1 mice, 1 mg/kg IV
measured_parameter: AUC(0-t)

I would be grateful if you could share the reported AUC(0-t) for Cc1n[nH]c2c1C(c1cc(C#C[C@H]3C[C@@H](NC(=O)OC(C)(C)C)C3)cc(CO)c1)(C(C)C)C(C#N)=C(N)O2 (stereo partly shown) . 76.6 ng·h/mL

---

test_description: Pharmacokinetics study of KDG-0271 in male CD1 mice (Example 4)
Assay type: in vivo
condition_parameters: mouse, plasma, 30 mg/kg IP, 4 h, read-out: Concentration IP_Mean
measured_parameter: concentration at 4 h (ng/mL)
One number for each entry, in ng/mL.

I am curious: what concentration at 4 h value has been reported for Cc1n[nH]c2c1C(c1cc(C#CC3CN(C(=O)OC(C)(C)C)C3)cc(CO)c1)(C(C)C)C(C#N)=C(N)O2 (stereo not shown) ? 317

---

Tested on: HCT116
test_description: HCT116 growth inhibition assay
Type: cell-based
condition_parameters: without formate
measured_parameter: IC50

Cc1n[nH]c2c1C(c1cc(C#C[C@H]3C[C@@H](NC(=O)OCc4ccccc4)C3)cc(CO)c1)(C(C)C)C(C#N)=C(N)O2 (stereo partly shown)
A″
Cc1nnc(N2CC(C#Cc3cc(CO)cc(C4(C(C)C)C(C#N)=C(N)Oc5[nH]nc(C)c54)c3)C2)o1 (stereo not shown)
C″
Cc1n[nH]c2c1C(c1cc(C#CC3CN(C(=O)CN(C)C)C3)cc(CO)c1)(C(C)C)C(C#N)=C(N)O2 (stereo not shown)
D″
Cc1n[nH]c2c1C(c1cc(C#C[C@H]3C[C@H](C(C)(C)O)C3)cc(CO)c1)(C(C)C)C(C#N)=C(N)O2 (stereo partly shown) [KDG-0258-100]
B″
Cc1n[nH]c2c1C(c1cc(C#C[C@H]3C[C@@H](C(=O)N(C)C)C3)cc(CO)c1)(C(C)C)C(C#N)=C(N)O2 (stereo partly shown)
B″
Cc1n[nH]c2c1C(c1cc(C#CC34CC(NC(=O)OC(C)(C)C)(C3)C4)cc(CO)c1)(C(C)C)C(C#N)=C(N)O2 (stereo not shown)
B″

Bench note: what IC50 did Cc1n[nH]c2c1C(c1cc(C#C[C@H]3C[C@@](C)(O)C3)cc(CO)c1)(C(C)C)C(C#N)=C(N)O2 (stereo partly shown) show? C″
